# credit: ChEMBL document CHEMBL3864159

- System Under Test: Caspase-5 (Homo sapiens)
- Sequence (P51878 137-327 limits assumed): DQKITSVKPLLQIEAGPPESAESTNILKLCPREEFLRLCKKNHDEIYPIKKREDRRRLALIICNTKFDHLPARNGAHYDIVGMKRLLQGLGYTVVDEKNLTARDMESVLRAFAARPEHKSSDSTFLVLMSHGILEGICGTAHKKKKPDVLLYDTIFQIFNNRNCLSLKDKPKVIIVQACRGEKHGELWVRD
- Sequence (P51878 347-434 limits assumed): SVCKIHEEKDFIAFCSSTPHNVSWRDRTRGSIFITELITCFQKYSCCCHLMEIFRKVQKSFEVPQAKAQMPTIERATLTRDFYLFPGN
- Test Protocol: Inhibition of human recombinant DTT-activated caspase-5 expressed in Escherichia coli using Ac-WEHD-AMC as substrate preincubated for 15 mins followed by substrate addition by fluorescence assay
pIC50: −log10 of the molar value.
Reported Property: pIC50

1) c1cncc(CN2CCN(c3cc(N4CCCC4)nc(N4CCCC4)n3)CC2)c1 = 5.59

====

- System Under Test: Caspase-1 (Homo sapiens, UniProt P29466)
- Sequence (P29466 120-297 limits assumed): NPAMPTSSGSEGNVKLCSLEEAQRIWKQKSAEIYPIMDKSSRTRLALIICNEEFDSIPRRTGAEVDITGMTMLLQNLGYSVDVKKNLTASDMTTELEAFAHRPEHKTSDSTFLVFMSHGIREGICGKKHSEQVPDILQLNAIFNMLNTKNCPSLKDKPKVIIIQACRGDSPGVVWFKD
- Sequence (P29466 317-404 limits assumed): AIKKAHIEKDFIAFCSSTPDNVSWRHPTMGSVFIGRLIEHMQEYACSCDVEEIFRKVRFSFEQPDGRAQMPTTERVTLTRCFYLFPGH
- Test Protocol: Inhibition of human recombinant N-terminal His-tagged DTT-activated caspase-1 expressed in Escherichia coli using Ac-WEHD-AMC as substrate preincubated for 30 mins followed by substrate addition by fluorescence assay
The entries below come with measured IC50 values attached.
Reported Property: IC50 (nM)

1) COc1cc(CN2CCN(c3cc(N4CCCC4)nc(N4CCCC4)n3)CC2)cc(OC)c1 = 173
2) O=[N+]([O-])c1ccc(CN2CCN(c3cc(N4CCCC4)nc(N4CCCC4)n3)CC2)cc1 = 450
3) c1ccc(CCN2CCN(c3cc(N4CCCC4)nc(N4CCCC4)n3)CC2)cc1 = 56
4) c1cncc(CN2CCN(c3cc(N4CCCC4)nc(N4CCCC4)n3)CC2)c1 = 1870
5) COc1cccc(CN2CCN(c3cc(N4CCCC4)nc(N4CCCC4)n3)CC2)c1 = 262
6) c1c(N2CCCC2)nc(N2CCCC2)nc1N1CCN(CC2CCCCC2)CC1 = 95
7) O=[N+]([O-])c1ccccc1CN1CCN(c2cc(N3CCCC3)nc(N3CCCC3)n2)CC1 = 796
8) FC(F)(F)c1ccc(CN2CCN(c3cc(N4CCCC4)nc(N4CCCC4)n3)CC2)cc1 = 639
9) c1cc(CN2CCN(c3cc(N4CCCC4)nc(N4CCCC4)n3)CC2)ccn1 = 1060
10) O=C(c1ccccc1)c1ccc(CN2CCN(c3cc(N4CCCC4)nc(N4CCCC4)n3)CC2)cc1 = 205
11) FC(F)(F)c1cc(CN2CCN(c3cc(N4CCCC4)nc(N4CCCC4)n3)CC2)cc(C(F)(F)F)c1 = 706
12) c1c(N2CCCC2)nc(N2CCCC2)nc1N1CCNCC1 = 455
13) c1ccc(CN2CCN(c3cc(N4CCCC4)nc(N4CCCC4)n3)CC2)cc1 = 700
